- tested system: TtArsC (Thermus thermophilus, UniProt Q72HI5)
- Construct: recombinant, pET30/TtarsC in E. coli BL21-CodonPlus(DE3)-RIL; thermo-precipitation, anion exchange (Resource Q), gel filtration (Superdex S75); no tag mentioned
- Sequence (Q72HI5 1-150): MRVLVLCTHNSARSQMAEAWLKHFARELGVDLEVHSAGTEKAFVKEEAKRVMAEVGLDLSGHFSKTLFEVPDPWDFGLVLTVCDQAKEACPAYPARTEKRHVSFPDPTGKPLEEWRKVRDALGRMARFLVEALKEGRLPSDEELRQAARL
- test description: biochemical
property label: pKi
Reminder that pKi is minus the log10 of a molar concentration.

Give me measured pKi, please, for this compound: O=[As]O 3.40
